Assay: Human HepG2 cell viability assay in 384 well format
Assay type: toxicity, cell-based
Parameters: dose 125 nL, time 70.5 hour; concentration not given beside the values
Conditions: HepG2 cells, read-out: Inhibition
measured.parameter: cytotoxicity at 70.5 h (%)

INSERT INTO results (compound, measurement_unit, numeric_result) VALUES
  ('Cc1[nH]/c(=N\C(=O)c2csc(NC3CC3)n2)sc1C', '%', -5.91),
  ('Cc1nn2c(N3CCC(O)C3)cc(-c3ccccc3)nc2c1C (centres undefined)', '%', -5.83),
  ('COc1cccc(N2CCN(CCC(=O)NC3CCCCC3)CC2)c1', '%', 16.7),
  ('O=C(NCC1CCOC1)N1CCN(c2ncccn2)CC1 (centres undefined)', '%', 0.214),
  ('Cc1csc2c(=O)n(CCN3CCNCC3)cnc12', '%', 11.9),
  ('CCN1CCN2CCCN(S(=O)(=O)c3ccc(C)cc3C)C2C1=O (centres undefined)', '%', -4.62),
  ('Cn1ncc(NCc2cccc(OCC(F)(F)F)c2)c(Cl)c1=O', '%', 18.3),
  ('CN1[C@H]2CC[C@@H]1CN(C(=O)c1ccc(-c3ccccc3)[nH]1)CC2', '%', -2.64),
  ('Cc1nc(CN2CCOCC3(CCN(c4cnccn4)CC3)C2)cs1', '%', -82.2),
  ('CN1C(=O)CCC12CCN(Cc1ccco1)CC2', '%', -12.2),
  ('COc1cc(CCC(=O)NC2CC2)ccc1OCC(F)(F)F', '%', -15.3),
  ('CCN1CCn2c(C)cnc2C12CCN(C(=O)C(C)C)CC2', '%', -15.2),
  ('Cc1cc(C)nc(NC2CCc3nc(C)nn3C2)n1 (centres undefined)', '%', -5.94),
  ('Cc1cc(CN(C)C2CCCN(Cc3noc(C)n3)C2)on1 (centres undefined)', '%', 17.4),
  ('Fc1ccc2[nH]c([C@H]3CCN(C4CCOCC4)C3)nc2c1', '%', 4.63),
  ('CCCC(=O)NC(C)(C)Cc1ccccc1OC', '%', -12.8),
  ('CC(C)CC1SCC(=O)Nc2c1cnn2C(C)C (centres undefined)', '%', -9.09),
  ('Cc1nc(CN2CCCC(NCc3ccc(C(N)=O)cc3)C2)no1 (centres undefined)', '%', -4.31),
  ('Cc1cc2cc(C(=O)N3C[C@H](O)[C@]4(CCCO4)C3)ccc2o1', '%', -2.18);

###

# Lookup of reported cytotoxicity at 70.5 h keyed by entry
Experiment: Human HepG2 cell viability assay in 384 well format
Type: toxicity, cell-based
Parameters: dose 125 nL, time 70.5 hour; concentration not given beside the values
Details: HepG2 cells, read-out: Inhibition
measured.parameter: cytotoxicity at 70.5 h (%)

INSERT INTO results (compound, measurement_unit, numeric_result) VALUES
  ('CCC(CNS(=O)(=O)c1c[nH]cn1)Oc1ccccc1F (stereo not given)', '%', -2.67),
  ('Cc1nc(C2CCCNC2)cc(N(C)CCc2ccccc2)n1 (stereo not given)', '%', 20.6),
  ('Cc1nc(CN2CCCC(Cn3cc(CCO)nn3)C2)c2ccccn12 (stereo not given)', '%', -5.43),
  ('CC1(C)CC(=O)N(CC(=O)Nc2ccon2)c2ccccc21', '%', -6.95),
  ('CCCc1nnc(N(C)CC2CCCN(CC)C2)o1 (stereo not given)', '%', 15.4);
